Test system: extracellular HBV DNA in HBV-infected PHH
Assay: Cryopreserved primary human hepatocytes (PHH) assay, HBV DNA
Type: cell-based
Details: Hepatitis B virus, Hepatocyte, 216 h; cryopreserved PHH infected with HBV, 9 days post-compound treatment, quantitative PCR
Give pIC50 for every item shown.
Give bare numbers, as −log10 of the molar value.

# COMPOUND, TARGET, pIC50
measured = [
    ("O=C(O)C1CCN(c2ccc3c(=O)c4cccc(Cl)c4oc3c2)C1 (stereo not shown)", "extracellular HBV DNA in HBV-infected PHH", 5.64),
    ("O=C(O)C1CCN(c2ccc3c(=O)c4cccc(F)c4oc3c2)C1 (stereo not shown)", "extracellular HBV DNA in HBV-infected PHH", 5.02),
    ("O=C(O)[C@@H]1CCN(c2ccc3c(=O)c4cccc(Cl)c4oc3c2)C1", "extracellular HBV DNA in HBV-infected PHH", 5.79),
]

Moving on to the next compound.
Value of pIC50 reported for the compound O=C(O)[C@H]1CCN(c2ccc3c(=O)c4cccc(Cl)c4oc3c2)C1 is 5.71
